Numbers sourced from patent US20250084079A1.

- tested_on: Avi-KRAS G12D (1-169) GppNHp/RAF1 RBD-3xFLAG (52-151) (Homo sapiens, UniProt P01116, G12D)
- Construct: 100 nM Avi-KRAS G12D (1-169) GppNHp
- Sequence (P01116 1-169 isoform P01116-2 G12D): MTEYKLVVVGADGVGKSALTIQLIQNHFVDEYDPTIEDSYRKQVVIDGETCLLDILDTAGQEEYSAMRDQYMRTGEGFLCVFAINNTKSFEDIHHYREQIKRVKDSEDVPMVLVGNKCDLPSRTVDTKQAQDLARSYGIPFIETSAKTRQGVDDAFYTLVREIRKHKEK
- method_summary: RAS-effector PPI HTRF disruption assay, Raf1-GppNHp-KRAS G12D
- Protocol: A protein:protein interaction (PPI) Homogeneous Time Resolved Fluorescence (HTRF) assay was used to determine the effectiveness of compounds of the present disclosure in disrupting KRAS protein and effector (RAF1 or PIK3 CA) binding. […] Plates were analyzed on an Envision plate reader using the following setting: Excitation 320 nm, Bandwidth […]; Emission 615 nm, Bandwidth […], Gain 100%, Flashes 100, Lag 60 μs. […] Data was plotted and analyzed using Prism 8. […]
reported_property: IC50

compound: N#Cc1c(N)sc2c(F)ccc(-c3c(C(F)(F)F)cc4c(O[C@H]5CCC6(CNC6)C5)nc(OC[C@@]56CCCN5C[C@H](F)C6)nc4c3F)c12 (atropisomer, axis not shown) [Compound 78]
endpoint_result: 1000 to 10000 nM
//
compound: Nc1nc2c(-c3c(C(F)(F)F)cc4c(O[C@H]5CNC[C@@H]5F)nc(OC[C@@]56CCCN5C[C@H](F)C6)nc4c3Cl)ccc(F)c2s1
endpoint_result: 1000 to 10000 nM

Now for a further compound.
Request: Given the compound C[C@@H]1CNCC1Oc1nc(OC[C@@]23CCCN2C[C@H](F)C3)nc2c(F)c(-c3ccc(F)c4sc(N)nc34)c(C(F)(F)F)cc12 (stereo partly drawn) [Compound 15] , write its reported IC50.
Result: 100 to 1000 nM
